B1: WSB1 (parent)
chain: FSHDGLHVASLADDKMVRFWRIDE

- Variants of: B1
- Run Description: protein stability index of a GFP-peptide fusion (GPS, HEK-293T) (PSI 1-6); higher = more stable;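 note: lentivirally expressed fusions sorted by FACS into six bins by GFP to DsRed ratio, PSI derived from sequencing read proportions per bin multiplied by bin number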
- Experimental Context: c terminus: a fixed tail appended
Condition met means recorded protein stability index is 2 or above; Condition not met means it is below 2.

>  <Mutation Notation>
A9V

>  <Cat>
Condition met

$$$$
>  <Mutation Notation>
F1D

>  <Cat>
Condition met

$$$$
>  <Mutation Notation>
F1H

>  <Cat>
Condition met

$$$$
>  <Mutation Notation>
D13N

>  <Cat>
Condition met

$$$$
>  <Mutation Notation>
V8H

>  <Cat>
Condition not met

$$$$
>  <Mutation Notation>
H3N

>  <Cat>
Condition not met

$$$$
>  <Mutation Notation>
R21I

>  <Cat>
Condition met

$$$$
>  <Mutation Notation>
M16K

>  <Cat>
Condition met

$$$$
>  <Mutation Notation>
M16N

>  <Cat>
Condition not met

$$$$
>  <Mutation Notation>
S2D

>  <Cat>
Condition met

$$$$
>  <Mutation Notation>
R21T

>  <Cat>
Condition not met

$$$$
>  <Mutation Notation>
M16E

>  <Cat>
Condition not met

$$$$
>  <Mutation Notation>
A9I

>  <Cat>
Condition met

$$$$
>  <Mutation Notation>
I22H

>  <Cat>
Condition met

$$$$
>  <Mutation Notation>
I22N

>  <Cat>
Condition met

$$$$
>  <Mutation Notation>
R21S

>  <Cat>
Condition met

$$$$
>  <Mutation Notation>
H7T

>  <Cat>
Condition not met

$$$$
>  <Mutation Notation>
G5M

>  <Cat>
Condition met

$$$$
>  <Mutation Notation>
R18S

>  <Cat>
Condition not met

$$$$
>  <Mutation Notation>
S10L

>  <Cat>
Condition not met

$$$$
